Data provenance is PubChem BioAssay AID248.

# System: L1210 leukemia ip in BDF1 mice, survival T/C
# METHOD_SUMMARY: NCI In Vivo Anticancer Drug Screen. Data for tumor model L1210 Leukemia (intraperitoneal) in B6D2F1 (BDF1) mice
# CONDITIONS: endpoint: mean survival time; dose: 12.5 mg/kg/injection; schedule: Q01DX009 (ip); vehicle: Klucel (hydroxypropylcellulose) (HPC); higher = longer survival
Toxic doses and inconclusive results are not listed.
Overview of recorded T/C for various molecules

{"MOLECULE": "CS(=O)(=O)N1C=CC=CC=C1", "T/C": "91 % of control"}
{"MOLECULE": "[Cl][Rh][Cl].c1cn[nH]c1.c1cn[nH]c1.c1cn[nH]c1.c1cn[nH]c1", "T/C": "98 % of control"}
{"MOLECULE": "O=C(C[n+]1cccc(/C=N\\O)c1)c1ccc(-c2ccc(C(=O)C[n+]3cccc(/C=N\\O)c3)cc2)cc1", "T/C": "111 % of control"}
{"MOLECULE": "NC(=O)NN=C1CCCCC1", "T/C": "97 % of control"}
{"MOLECULE": "N#Cc1nc(C#N)c(C#N)nc1C#N", "T/C": "100 % of control"}
{"MOLECULE": "CCO/C([O-])=C/[P+](c1ccccc1)(c1ccccc1)c1ccccc1", "T/C": "103 % of control"}
{"MOLECULE": "CN(N)P(=S)(c1ccccc1)N(C)N", "T/C": "100 % of control"}
{"MOLECULE": "CN(C)CCCC1C2CCC(C2)C1C#N (stereo not drawn)", "T/C": "104 % of control"}

----------
# System: L1210 leukemia ip in BDF1 mice, survival T/C
# METHOD_SUMMARY: NCI In Vivo Anticancer Drug Screen. Data for tumor model L1210 Leukemia (intraperitoneal) in B6D2F1 (BDF1) mice
# CONDITIONS: endpoint: mean survival time; dose: 50.0 mg/kg/injection; schedule: Q01DX009 (ip); vehicle: saline; higher = longer survival
Toxic doses and inconclusive results are not listed.
REPORTED_METRIC: T/C

{"COMPOUND": "CNCCCN1c2ccccc2CCc2ccccc21", "TESTED_TARGET": "L1210 leukemia ip in BDF1 mice, survival T/C", "REPORTED_VALUE": "106 % of control"}
{"COMPOUND": "O=C(C[n+]1ccccc1)N/N=C/c1ccc(Cl)c(Cl)c1", "TESTED_TARGET": "L1210 leukemia ip in BDF1 mice, survival T/C", "REPORTED_VALUE": "102 % of control"}
{"COMPOUND": "Cn1c(O)c(N)c(=O)n(C)c1=O", "TESTED_TARGET": "L1210 leukemia ip in BDF1 mice, survival T/C", "REPORTED_VALUE": "98 % of control"}
{"COMPOUND": "Cc1ccc(S(=O)(=O)NCCCCCC(=O)OCc2ccccc2)cc1", "TESTED_TARGET": "L1210 leukemia ip in BDF1 mice, survival T/C", "REPORTED_VALUE": "97 % of control"}
{"COMPOUND": "CCN(CC)CC(=O)NCC(CCCN(C)C)(CCCN(C)C)c1cccc2ccccc12", "TESTED_TARGET": "L1210 leukemia ip in BDF1 mice, survival T/C", "REPORTED_VALUE": "86 % of control"}
{"COMPOUND": "CCOC(=O)N1C=Cn2c(cnc2C)C1OCC (stereo unspecified)", "TESTED_TARGET": "L1210 leukemia ip in BDF1 mice, survival T/C", "REPORTED_VALUE": "109 % of control"}
